Below, each of the compounds is paired with its reported log10 of IC50 value.
molecular target: PRMT5/MEP50 complex (Homo sapiens (Human), UniProt O14744); assay: PRMT5:MEP50 FlashPlate Assay (histone H4 peptide substrate, plus and minus MTA); type: biochemical; details: in the absence of MTA, read-out: IC50
Sequence (O14744 2-637): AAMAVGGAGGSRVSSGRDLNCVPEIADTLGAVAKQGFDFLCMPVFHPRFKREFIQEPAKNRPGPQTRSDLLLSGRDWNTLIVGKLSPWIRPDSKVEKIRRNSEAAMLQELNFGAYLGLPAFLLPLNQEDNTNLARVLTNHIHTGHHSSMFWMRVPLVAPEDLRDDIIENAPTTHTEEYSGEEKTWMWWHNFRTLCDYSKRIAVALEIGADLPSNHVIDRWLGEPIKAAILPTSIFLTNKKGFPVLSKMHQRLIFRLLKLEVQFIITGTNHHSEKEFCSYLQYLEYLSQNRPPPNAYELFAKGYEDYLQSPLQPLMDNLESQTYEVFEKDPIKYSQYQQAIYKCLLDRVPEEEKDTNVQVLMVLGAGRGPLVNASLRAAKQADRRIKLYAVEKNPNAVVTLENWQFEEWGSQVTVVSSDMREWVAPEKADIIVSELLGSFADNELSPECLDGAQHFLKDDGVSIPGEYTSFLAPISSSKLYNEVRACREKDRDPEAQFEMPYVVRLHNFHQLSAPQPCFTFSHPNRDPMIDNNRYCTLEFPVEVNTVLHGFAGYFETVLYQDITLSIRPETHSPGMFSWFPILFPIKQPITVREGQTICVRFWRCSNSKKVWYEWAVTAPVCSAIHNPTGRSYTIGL
Sequence (Q9BQA1 2-342 partner): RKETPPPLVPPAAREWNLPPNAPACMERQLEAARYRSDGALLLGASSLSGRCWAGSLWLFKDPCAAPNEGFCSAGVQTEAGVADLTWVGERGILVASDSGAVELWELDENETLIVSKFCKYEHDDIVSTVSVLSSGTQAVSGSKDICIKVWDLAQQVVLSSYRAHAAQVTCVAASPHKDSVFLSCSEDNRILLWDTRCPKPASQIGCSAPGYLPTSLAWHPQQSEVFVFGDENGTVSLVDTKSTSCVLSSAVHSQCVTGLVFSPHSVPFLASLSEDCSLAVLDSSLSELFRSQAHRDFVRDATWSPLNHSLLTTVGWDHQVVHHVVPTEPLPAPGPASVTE
Quick note: numbers are log10 of IC50, with µM as the unit.

Example entries and their recorded answers appear below.
> print(dat)
                                   compound                              study.target  endpoint.value
1  COc1ccc(Oc2cncc(-c3ccc4c(=O)[nH]nc(CN)c4c3)c2)cc1  PRMT5/MEP50 complex (Homo sapiens (Human), UniProt O14744)           -1.02
2  Cn1ncc(-c2ccc3c(=O)[nH]nc(CN)c3c2)c1-c1cccc(Cl)c1  PRMT5/MEP50 complex (Homo sapiens (Human), UniProt O14744)           -0.86
3  NCc1n[nH]c(=O)c2ccc(-c3cnn4c3CN(C(=O)C3CCC3)CC4)cc12  PRMT5/MEP50 complex (Homo sapiens (Human), UniProt O14744)           -0.14
4  NCc1n[nH]c(=O)c2ccc(-c3cncc(Sc4cccc(Cl)c4)c3)cc12  PRMT5/MEP50 complex (Homo sapiens (Human), UniProt O14744)           -0.97
5       Cc1ccncc1-c1ccc2c(=O)[nH]nc(CN)c2c1  PRMT5/MEP50 complex (Homo sapiens (Human), UniProt O14744)            0.80

Test item Cc1ccc(Oc2cncc(-c3ccc4c(=O)[nH]nc(CN)c4c3)c2)c(C)c1 ; PRMT5/MEP50 complex (Homo sapiens (Human), UniProt O14744); reported log10 of IC50 was -1.62

Test item NCc1n[nH]c(=O)c2ccc(-c3cncc([S+]([O-])c4ccccc4)c3)cc12 (centres unmarked) ; PRMT5/MEP50 complex (Homo sapiens (Human), UniProt O14744); reported log10 of IC50 was -0.33

----------
target: PRMT5/MEP50 complex (Homo sapiens (Human), UniProt O14744); assay: PRMT5:MEP50 FlashPlate Assay (histone H4 peptide substrate, plus and minus MTA); type: biochemical; conditions: IC50 + 2 μM MTA (nM), in the presence of 2 μM MTA
# note: boundary value 20 nM maps to NOT MET; IC50 below it maps to MET

> print(dat)
                                   compound  cat
1  Cn1ncc(-c2ccc3c(=O)[nH]nc(CN)c3c2)c1-c1cccc(F)c1 [Example 4-91]  MET
2  N#Cc1ccccc1-c1cncc(-c2ccc3c(=O)[nH]nc(CN)c3c2)c1 [Example 3-40]  MET

Ask: Does the reported IC50 of NCc1n[nH]c(=O)c2ccc(-c3cncc(C4CC4)c3)cc12 [Example 3-33] stay below 20 nM?
Reply: NOT MET

----------
biological target: PRMT5/MEP50 complex (Homo sapiens (Human), UniProt O14744); assay: PRMT5:MEP50 HotSpot Assay (full-length histone H2A substrate, plus and minus MTA); format: biochemical; settings: IC50 + 2 μM MTA, in the presence of 2 μM MTA
Below, each of the compounds is paired with its reported pIC50 value.
Scale for pIC50: -log10 of concentration given in mol/L; no unit attached.

> print(dat)
                        structure.as.smiles  assay.readout  endpoint.value
1  Cn1ncc(-c2ccc3c(=O)[nH]nc(CN)c3c2)c1CCc1ccccc1          pIC50            6.27

Measured pIC50 of Cc1ccc(-c2c(-c3ccc4c(=O)[nH]nc(CN)c4c3)cnn2C)c(C#N)c1C : 6.50

Measured pIC50 of N#Cc1ccccc1-c1cncc(-c2ccc3c(=O)[nH]nc(CN)c3c2)c1 : 5.01

Measured pIC50 of Cn1ncc(-c2ccc3c(=O)[nH]nc(CN)c3c2)c1-c1ccc(OC2CC2)cc1 : 6.06

Measured pIC50 of Cn1ncc(-c2ccc3c(=O)[nH]nc(CN)c3c2)c1-c1cnn(Cc2ccccc2)c1Cl : 6.62

Measured pIC50 of Cn1ncc(-c2ccc3c(=O)[nH]nc(CN)c3c2)c1-c1ccc2cccnc2c1C#N : 6.05

Measured pIC50 of CCc1cccc(-c2c(-c3cc(C)c4c(=O)[nH]nc(CN)c4c3)cnn2C)c1C#N : 6.97

Measured pIC50 of NCc1n[nH]c(=O)c2ccc(-c3cnn4ccc(Oc5ccccc5)cc34)cc12 : 6.31

The measured values listed here are drawn from patent US11479551B2.
